Measured MIC values are reported for all entries that follow.
Tested on: Bacillus subtilis, ATCC 23857
Experiment: Minimal inhibitory concentration assay (microbroth dilution)
Format: cell-based
Conditions: Bacillus subtilis, ATCC23857, read-out: Minimal Inhibitory Concentrations B. subtilis ATCC 23857
*1 amine or outer side, *2 acyl side, *3 side chain or, on linkers, in order; H or OH if unused. Where a SMILES comes first, the peptide text is derived from it. Bridges are numbered along the chain shown (N, C = ends). [ ]: non-standard residue; d: D form. The star is where a group is joined. ξ: configuration not given here. Phe(3,5-F2) = N[C@@H](Cc1cc(F)cc(F)c1)C(=O)O; NH(1-Me-indolin-5-yl) = CN1CCc2cc(N*)ccc21; Pro(4S-Me) = C[C@@H]1CN[C@H](C(=O)O)C1; Pro(4R-Me) = C[C@H]1CN[C@H](C(=O)O)C1; ξPro(4S-Me) = C[C@@H]1CNC(C(=O)O)C1; Hyp = O=C(O)[C@@H]1C[C@@H](O)CN1; NH(4-Me-phenyl) = Cc1ccc(N*)cc1; aThr = C[C@H](O)[C@H](N)C(=O)O; X5 = O=C(C1COCCN1[*:1])[*:2]; Pip = O=C(O)[C@@H]1CCCCN1; NMeA = CN[C@@H](C)C(=O)O; CO = O=C([*:1])[*:2]; ξP = O=C(O)C1CCCN1
Provide only the numeric value, understood in µM.

- molecule: "C[C@@H]1C[C@H]2C(=O)O[C@@H](C)[C@H](NC(=O)[C@H](Cc3cc(F)cc(F)c3)NC(=O)Nc3ccc4c(c3)CCN4C)C(=O)N3CCC[C@H]3C(=O)N3CCCC[C@H]3C(=O)N[C@@H](C)C(=O)N2C1 [Compound 310] ({NH(1-Me-indolin-5-yl)-CO}-[Phe(3,5-F2)][aThr]P[Pip]A[Pro(4R-Me)]; ester 2-C)"
  readoutLabel: "MIC"
  valueMeasured: 0.078
- molecule: "Cc1ccc(NC(=O)N[C@@H](Cc2cc(F)cc(F)c2)C(=O)N[C@@H]2C(=O)N3C[C@H](O)C[C@H]3C(=O)N(C)[C@@H](C)C(=O)N[C@@H](C)C(=O)N3C[C@@H](C)C[C@H]3C(=O)O[C@H]2C)cc1 [Compound 214] ({NH(4-Me-phenyl)-CO}-[Phe(3,5-F2)][aThr][Hyp][NMeA]A[Pro(4S-Me)]; ester 2-C)"
  readoutLabel: "MIC"
  valueMeasured: 0.391

Switching to the query record.
What does the record list as MIC for Cc1ccc(NC(=O)N[C@@H](Cc2cc(F)cc(F)c2)C(=O)N[C@@H]2C(=O)N3CCCC3C(=O)N3CCOCC3C(=O)N[C@@H](C)C(=O)N3C[C@@H](C)CC3C(=O)O[C@H]2C)cc1 (stereo partly drawn) [Compound 33] ({NH(4-Me-phenyl)-CO}-[Phe(3,5-F2)][aThr][ξP][X5]A[ξPro(4S-Me)]; ester 2-C) ?
0.2
